Test system: Candida albicans
test: Antifungal activity against Candida albicans after 48 hrs by serial plate dilution method
Assay type: functional
measured_endpoint: MIC

Please review the entries below; each comes with its answer.
CC(C)CC(/N=C/c1c[nH]c2ccccc12)C(=O)O (configuration not stated): 19.9 µg/mL
CC(C)C(/N=C/c1c[nH]c2ccccc12)C(=O)O (configuration not stated): 26.8 µg/mL
Oc1ccccc1/N=C/c1c[nH]c2ccccc12: 28.4 µg/mL
O=C(O)CCC(/N=C/c1c[nH]c2ccccc12)C(=O)O (configuration not stated): 12.5 µg/mL
O=S(=O)(O)c1cc(O)c(/N=C/c2c[nH]c3ccccc23)c2ccccc12: 15.2 µg/mL

Lookup: Form field: reported MIC of O=C(O)C(Cc1c[nH]cn1)/N=C/c1c[nH]c2ccccc12 (configuration not stated)
Found: > 50 µg/mL

Lookup: Would you kindly repeat that for O=C(O)CC(/N=C/c1c[nH]c2ccccc12)C(=O)O (configuration not stated) ?
Found: 11.9 µg/mL
